Origin of the recorded values: patent US20020119473

pIC50 values for the binders below.
Target: xPSM (extracellular portion of PSMA) (Homo sapiens (LNCaP cDNA), UniProt Q04609 Q04609:44-750)
Sequence (Q04609 44-750, one chain of several): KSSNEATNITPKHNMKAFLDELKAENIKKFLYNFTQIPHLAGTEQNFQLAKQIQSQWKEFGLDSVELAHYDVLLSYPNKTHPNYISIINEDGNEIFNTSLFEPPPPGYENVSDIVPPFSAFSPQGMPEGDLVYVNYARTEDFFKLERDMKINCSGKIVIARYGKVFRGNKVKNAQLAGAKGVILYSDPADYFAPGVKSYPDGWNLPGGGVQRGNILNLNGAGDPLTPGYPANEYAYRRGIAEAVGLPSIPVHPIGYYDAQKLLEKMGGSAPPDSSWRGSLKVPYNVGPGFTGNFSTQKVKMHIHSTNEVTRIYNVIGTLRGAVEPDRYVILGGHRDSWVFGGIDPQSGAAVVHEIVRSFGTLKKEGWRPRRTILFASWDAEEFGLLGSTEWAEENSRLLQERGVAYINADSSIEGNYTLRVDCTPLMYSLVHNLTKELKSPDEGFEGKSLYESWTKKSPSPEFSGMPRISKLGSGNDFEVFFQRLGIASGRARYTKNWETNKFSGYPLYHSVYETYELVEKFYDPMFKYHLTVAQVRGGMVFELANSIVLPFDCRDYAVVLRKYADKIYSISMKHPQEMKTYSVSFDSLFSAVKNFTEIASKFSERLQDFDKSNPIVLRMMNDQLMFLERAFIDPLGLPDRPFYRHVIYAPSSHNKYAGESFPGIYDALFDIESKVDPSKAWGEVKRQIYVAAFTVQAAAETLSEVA
Assay: inhibition; NAALADase assay, 8 nM substrate, 37 C
Conditions: tags: S-tag fusion released by enterokinase; baculovirus Sf-9 secreted
pIC50 here: minus log base 10 of the concentration, concentration in moles per litre.

Worked cases, answers included:
Any idea what its pIC50 is? The binder is xPSM1.A9-2 (ssRNA, 2'-F all pyrimidines; purines 2'-OH) RNA: GGGAGGACGAUGCGGACCGAAAAAGACCUGACUUCUAUACUAAGUCUACGUUCCCAGACG
6.52

Any idea what its pIC50 is? The binder is xPSM1.A10-1 (ssRNA, 2'-F all pyrimidines; purines 2'-OH) RNA: GGGAGGACGAUGCGGAUCAGCCAUGUUUACGUCACUCCUUGUCAAUCCUCAUCGGCAGACGACUCG
7.40

Any idea what its pIC50 is? The binder is xPSM1.A10-3 (ssRNA, 2'-F all pyrimidines; purines 2'-OH) RNA: GGGAGGACGAUGCGGAUCAGCCAUGUUUACGUCACUCCUUGUCAAUCCUCAUCGGC
7.30

Any idea what its pIC50 is? The binder is xPSM1.A9-1 (ssRNA, 2'-F all pyrimidines; purines 2'-OH) RNA: GGGAGGACGAUGCGGACCGAAAAAGACCUGACUUCUAUACUAAGUCUACGUUCCCAGACGACUCG
8.10

Any idea what its pIC50 is? The binder is xPSM-A10 (62-A10) (ssRNA, 2'-F all pyrimidines; purines 2'-OH) RNA: GGGAGGACGAUGCGGAUCAGCCAUGUUUACGUCACUCCUUGUCAAUCCUCAUCGGCAGACGACUCGCCCGA
7.10

Continuing:
Any idea what its pIC50 is? The binder is xPSM-A9 (ssRNA, 2'-F all pyrimidines; purines 2'-OH) RNA: GGGAGGACGAUGCGGACCGAAAAAGACCUGACUUCUAUACUAAGUCUACGUUCCCAGACGACUCGCCCGA
8.30
